test: yeast display, Sf9 membrane polyspecificity reagent, FACS + sequencing; frameworks hold sequencing errors
measureName: polyreactivity (PSR sort gate)

Some solved entries appear below for comparison.
primarySequence: QVQLVESGGGLVQAGGSLRLSCAASGIIFINYVMGWYRQAPGKESELVAAITGSGSSTYYADSVKGRFTISRDNAKNTVYLQMNSLKPEDTAVYYCAADNPRVRFLYYYWGQGTQVTVSS
measureName: polyreactivity (PSR sort gate)
result: high polyreactivity

primarySequence: QVQLVESGGGLVQAGGSLSLTCAASGSSFWPYAMGWYRQAPGKELELVAASTTRDGSTYYADSVKGRFTISRDNAKNTVYLQMISLKTEDTAVYYSAAVVLRDGWWGYYYWGQGTQVTVSS
measureName: polyreactivity (PSR sort gate)
result: high polyreactivity

primarySequence: QVQLVESGGGLVQAGGSLRLSCAASGSISYKYALGWYRQAPGKERELVAAISSSGGRTYYADSVKGRFTISRDNAKNTVYLQMISLKPEDTAVYYCNARTGTTWQGYEYDYWGQGTQVTVSS
measureName: polyreactivity (PSR sort gate)
result: low polyreactivity

primarySequence: QVQLVESGAGLVQAGGSLRLSCAASGRTFFVNAMGWYRQAPGKERELVATITFSGDSTYYADSVKGRFTISRDNAKNTVFLQMNSLKPEDTAVYYCAARTGYGYTRYEYWGQGTQVTVSS
measureName: polyreactivity (PSR sort gate)
result: high polyreactivity

Lab note: next sequence to report on.
// polyreactivity (PSR sort gate) lookup, sequence = `HVQLVESGGGLVQAGGSLRLSCAASGSIFVYNAMGWFRPAPGKERELVAGITFIGGSTYYADSVKGRFTISRDNAKNTVYLHMNSLKPVDNAVSYCATQEDWEDDWGQGTKVTVSS` , result: low polyreactivity

* * *

experiment: yeast display, Sf9 membrane polyspecificity reagent, FACS + sequencing; frameworks hold sequencing errors
measureName: polyreactivity (PSR sort gate)

Some solved entries appear below for comparison.
primarySequence: QVQLVESGGGLVQAGGSLRLSCAASGRTFYYNAMGWYRQAPGKERELVASISWSGTSTYYADSVKGRFTISRDNAKNTVYLQMNSLKPEDTAVYYCATDSYWRQDLYRYEYWGQGTQVTVSS
result: high polyreactivity
--
primarySequence: QVQLVESGGGLVQAGGSLRLSCAASGRIFFRYAMGWYRQAPGKEREFVAAISCTGGSTYYADSVKGRFTISRDNAKNTVYLQMNSLKPEDTAVYYCAASVVSRPTYYAYYYWGQGTQVTVSS
result: high polyreactivity
--
primarySequence: QVQLVESGGGLVQAGGSLRLSCAASGRTIRAYTMGWYRQAPGNERELVAAISTPGGSTYYADSVKGRFTISRDNAKNTVYLQLNSLKPEDTAVYYCAADYGGPITGYEYWGQGTQVTVSS
result: low polyreactivity
--
primarySequence: QVQLVESGGCLVQAGGSLRLSCAASGFTFPYYAMGWDRQAPGKERELVAAISSGGRTNYADSVKGRFTISRDNAKNTVYLQMNSLKPEDTAVYYCATRSYVFAWEFNYWGQGTQVTVSS
result: high polyreactivity
--
primarySequence: QVQLVESGGGLVQAGGSLRLSCAASGRTFRYYDMGWYRQAPGKEREFVAAITWRGGSTYYADSVKGRFTISRDNAKNTVYLQMNSLKPEDTAVYYCATDSLRLYGGKRDLYYWGQGTQVTVSS
result: low polyreactivity

// polyreactivity (PSR sort gate) lookup, sequence = `QGQLVESGGGLGQEGGSLRLICAASGNTFDYYVMGWYRQAPGKERELVAVITSGSSTYYADSVKGRFTISRDNAKNTVFFQMNSLQPEDTAVYYCAKTTRRPGLRSYDYWGQGTQVTVSS` , result: high polyreactivity

// polyreactivity (PSR sort gate) lookup, sequence = `QVQLVESGGGLVQAGGSLRLSCAASRRIFGQNVMGWYRQAPGKERELVAAITSAGRTYYADSVKGRFTISRDNAKNTVYLQMNSLKPEDTAVYYCAAYVRRGFDWGHGTQVTVSS` , result: high polyreactivity

// polyreactivity (PSR sort gate) lookup, sequence = `QVQLVESGGGLVQAGGSLRLRCAASGIIFSPYDMGWSIQAPGKVRELVAAITTGDSTNYADSVKGRFTMSRDNAKTTVYFPMNSLKPEDTAVDYCNATDTYVFFLYLEFDYWGQGTQVTVSS` , result: low polyreactivity

// polyreactivity (PSR sort gate) lookup, sequence = `QVQLVESWGGLVQAGGSLRLICAASRGTFRVYAMGWYRQAPVKERELVAAITWRGGRTYYADSVKGRFTISRDNAKNTVYLQMNSLKPEDTAVYYCAADRYGDLYDYWGQGTQVTVSS` , result: high polyreactivity

// polyreactivity (PSR sort gate) lookup, sequence = `QVQLVESGGGLVQAGGSLRLSCAASGSIFVTYAMGWYRQAPGKERELVAAINYSGGSTYYADSVKGRFTISRDNAKNTVYLQMNSVKPEDTAVYYCAATTRYYSYGYWGQGTQVTVSS` , result: low polyreactivity

// polyreactivity (PSR sort gate) lookup, sequence = `QVQLVESGGGLVQAGGSLRLSCAASGITFFVYAMGWYRQAPGKERELVAAISSTASTNYADSVKGRFTISRDNAKYTVYLQMNSRKPEDTAVYYCNAGVWSLGTYWQFDYWGQGTQVTVSS` , result: high polyreactivity

* * *

experiment: yeast display, Sf9 membrane polyspecificity reagent, FACS + sequencing; frameworks hold sequencing errors
measureName: polyreactivity (PSR sort gate)

primarySequence: QDQLVESGGGLVQAGGSLRLSCAASGLIFARYAMGWYIQAPGKERELVAVISGRGGGTYYADSVKGRFTISRDNAKNTVYLQMNSLKPEDTAVYYCNKYGYKGGVGYDYWGQGTQVTVSS
polyreactivity (PSR sort gate): high polyreactivity
//
primarySequence: QVQLVESGGGLVQAGGSLRLSCAASGFTFYRNAMGWYRQAPGKERELVAAISRGGRTYYADSVKGRFTISRDNAKNTVYLQMNSLKQEDTAVYYCAADFYIKYSEFDYWGQGTQVTVSS
polyreactivity (PSR sort gate): high polyreactivity
//
primarySequence: QVQLQESGGGLVLAGGSLRLSCSASGNIYVYGYKGWYRQAPRKEREFVATIDPGTNTNYADSVKDRFSISRDNAKNSVYLQMKSLKPEDNAVYYCAVEAGSDWPYRYWGLGTQVTVSS
polyreactivity (PSR sort gate): low polyreactivity
//
primarySequence: QVQLVESGGGLVQAGGSLRLSCAASGLTFDRYVMGWYRQAPGKERELVAGISTGGSSTYYADSVKGRFTISRDNAKNTVYLQMNSLKPEDTAVYYCAAKLSYWSRHNYWGQGTQVTVSS
polyreactivity (PSR sort gate): high polyreactivity
//
primarySequence: QVQLVESGGGLVQAGGSLRLSCAASGFIFYVNAMGWYREAPGNERQLVAAISLIGGSTYYADSVKGRFTISRDNAKNTVYLQMNSLIPEDTAVYYCAADPFPGVYDDAIIDYDYWGQGTQVTVSS
polyreactivity (PSR sort gate): low polyreactivity
//
primarySequence: QVQLVESGGGLVQAGGSLRLSRAASGGSLRLYAMRWYRQAHGKERELVSAINDRSGSTYYADSVKGRFTISRDNAKNTVYLKLNRLKPEDTAVYYCYAYGTPPGSDGQYDYWGQGTQVTVSS
polyreactivity (PSR sort gate): high polyreactivity
//
primarySequence: QVQLVETGGGLVQAGGSLRLSCDASGRTFRIYGMGWYRQAPGKERELVAAISYSTGGTYYADSVKGRFTISRDNAKNTVYLQMTSLKPEDTAVYYCAAVVYAYLYADYDYWGQGTQVTVSS
polyreactivity (PSR sort gate): low polyreactivity
//
primarySequence: QVQLVESGGGLVQAGGSLRLSCAASGRTFGGNAMGWYRQAPGKERELVAAISSGGSTNYADSVKGRFTISRDNANNTVYLQMNSLKPEDTAVYYCAARGPYWGQGTQVTVSS
polyreactivity (PSR sort gate): low polyreactivity

// polyreactivity (PSR sort gate) lookup, sequence = `QVQLVESGAGLVQAGGSLRLSCAASGYIFYKNAMGWYRQAPGKERELVAAISTRGGSTYYADSVKGRFTISRDNAQNTVYLHMNSLKPEDTAVNYCAASQNRRDWGQGTQVTVSS` , result: high polyreactivity

// polyreactivity (PSR sort gate) lookup, sequence = `QVQLVESGGGLVQAGGSLRLSCAASGSTFRYYAMGWYRQAPGKERELVASITWSGGSTYYADSVKGRFTISRDNAKNTVYLQMNSLKPEDTAVYYCAARQYIGSPPHRRRFDYWGQGTQVTVSS` , result: high polyreactivity

// polyreactivity (PSR sort gate) lookup, sequence = `QVQLVESGGGLVQAGGSLRLSCAASGSILNNYAMGWYRQAPGKERELVAAISSSGGTNYADSVKGRFTISRDNAKNTVYLQMNSLKPEDTAVYYCNADVLDGGYDYWVQGTQVTVSS` , result: low polyreactivity

* * *

test: yeast display, Sf9 membrane polyspecificity reagent, FACS + sequencing; frameworks hold sequencing errors
measureName: polyreactivity (PSR sort gate)

Some solved entries appear below for comparison.
primarySequence: QVQHVESGGGLVQAGGSLRLSCAASGLTFYDYAMGWYRQAPGKERELVADIDFNGGSTSYADSVKGRFTISRDNAKNTVYLQMNSLKPEDTAVYYCAARIHGSWSFDYWGQGTQVTVSS
polyreactivity (PSR sort gate): low polyreactivity
--
primarySequence: QVQLVESGGGLVQAGGSLRLSCAASGSIFHYNAMGWYRQAPGKERELVAAISWRGGTTYYADSVKGRFTISRDNAKNTVYLQMNSLKPEDTAVYYCNRAYVYTYQRRDYDYWGQGTQVTVSS
polyreactivity (PSR sort gate): low polyreactivity
--
primarySequence: QVQLVESGGGLVQAGGSLRLSCAASGRTFRIYAMGWYRQAPGKERELVAAINSGGTTNYADSVKGRFTISRDNAKNTVYLQMISLKPEDTAVYYCAVRYSKTLSHFSYDYWGQGTQLTVSS
polyreactivity (PSR sort gate): low polyreactivity
--
primarySequence: QVQLVESGGCLVQAGGSLRLTCAASGRTFYWNTMGWYRQAPGKERELVAAISSSGDSTYYADSVKGRFTISRDNAKNTVYLQMNCLKPEDTAVYYCAAGRRGTSTTWGQGSQVTVSS
polyreactivity (PSR sort gate): high polyreactivity
--
primarySequence: QVQLVETGGGLVQAGGILRLSCAASGLIFTGNVMGWYRQAPGKESELVAAISRSGGRTYYADSVKGRFTISRDNAKNTVYLQMNSLKPEDTAVYYCNKVSPERVYYGSYFRYYYWGQGTQVTVSS
polyreactivity (PSR sort gate): high polyreactivity

// polyreactivity (PSR sort gate) lookup, sequence = `QVQLQESGGGLVQADGSLRLSCAASGTIFTQSYMGWYRQAPGKEREFVAGISNGTNTNYGDSVKGRFTISRDNAKNTVYLQMNSLKLEDTAVYYCAVKGFYVDVLAYWGQGTHVTVSS` , result: high polyreactivity

// polyreactivity (PSR sort gate) lookup, sequence = `QVQLVESGGGLVQAGGSLRLSCAASGFTFVAYAMGWYRQAPGKERELVAAISRRGGTTYYADSVKGRFTISRDNAKNTVYLQMNSLKPEDTAVYYCNARGFPGKFGYWGQGTQVTVSS` , result: high polyreactivity

// polyreactivity (PSR sort gate) lookup, sequence = `QVQLVESGGGLVQAGGSLRLSCAASGSIFSYYAMGWYRQAPGKERELVATISWSGGSTYYADSVKGRFTISRDNAKNTVYLQMNSLKPEDTAVYYCAARKYGQRYRRDYWGQGTQVTVSS` , result: low polyreactivity

// polyreactivity (PSR sort gate) lookup, sequence = `QVQIVESGGGLVQAGGSLRLSCAASGRTFWGNAMGWYRQAPGKERELVASISSRGSSTYYADSVKGRFTISRDNAKNTVYLQMNSLKPEDTAVYYCAARTHYFPWPWYVWDYYSDGYWGQGTQVTVSS` , result: low polyreactivity

// polyreactivity (PSR sort gate) lookup, sequence = `QVQLVESGGGLVQAGGSLRLSCAASGIYAMGWYRQAPGKERELVAAIRWSGGSTYYADSVKGRFTISRDNAKNTVYLQMNSLKPEDTAVYYCAKRLRPGGYWYDYWGQGTQVTVSS` , result: high polyreactivity

// polyreactivity (PSR sort gate) lookup, sequence = `QVQLVESGGGLVQAGGSLRLSCAASGFTIRWYTMGWYRQAPGKERELVAAISRGGSTNYADSVKGRFTISRDNAKNTVYLQMNSLKPEDTAVYYCATSAPLVTSSGYGYWGQGTQVTVSS` , result: high polyreactivity
